Observed IC50, system HsPI(4)K (Homo sapiens, UniProt Q9UBF8).
Quick reminder: number only, in nM, skip the unit.

molecule: COC(=O)c1cc(Cl)ccc1N(C)C(=O)c1ccn2ncc(-c3ccc(C(N)=O)cc3)c2c1
observed_result: 203
--
molecule: CN(C(=O)c1ccn2ncc(-c3ccc(C(N)=O)cc3)c2c1)c1ccc(C#N)cn1 [KDU731, reference compound]
observed_result: 1930

Turning now to a further molecule:
Value of IC50 reported for the molecule COC(=O)c1cc(N(C)C(=O)c2ccn3ncc(-c4ccc(C(=O)O)cc4)c3c2)ccc1Cl is 11300

* * *

Assay: High-throughput equilibrium solubility
Format: physicochemical
Settings: FaSSIF, thermodynamic from solid, Solubility FaSSIF
measurement_name: solubility (µM)
Quick reminder: number only, in µM, skip the unit.

Value of solubility reported for the molecule CNC(=O)c1ccc(-c2cnn3ccc(C(=O)N(C)c4ccc(Cl)c(C(=O)OC)c4)cc23)cc1 is 198

* * *

Assay: Plasma stability
Assay type: in vitro ADME
Details: mouse
Property: half-life; scope: individual compounds

compound: CCOC(=O)CN(C(=O)c1ccn2ncc(-c3ccc(C(=O)NC)cc3)c2c1)c1ccc(Cl)cc1 [Compound 1]
half-life: 0.227 h

compound: CNC(=O)c1ccc(-c2cnn3ccc(C(=O)N(C[C@H]4CCC(=O)O4)c4ccc(OC(F)(F)F)cc4)cc23)cc1 [Compound 4]
half-life: < 0.0833 h

compound: COC(=O)c1cc(Cl)ccc1N(C)C(=O)c1ccn2ncc(-c3ccc(C(N)=O)cc3)c2c1 [Compound 5]
half-life: > 2 h

Value of half-life reported for the compound CN(C(=O)c1ccn2ncc(-c3ccc(C(N)=O)cc3)c2c1)c1ccc(C#N)cn1 [KDU731, reference compound] is 1.42 h

Value of half-life reported for the compound CNC(=O)c1ccc(-c2cnn3ccc(C(=O)N(CC(=O)O)c4ccc(Cl)cc4)cc23)cc1 [Compound 2] is > 2 h

* * *

Assay: In vivo pharmacokinetic analysis
Set-up: species or system mouse
Settings: male, C57BL/6, mouse, plasma, iv, 1 mg/kg
measurement_name: half-life (min)
Quick reminder: number only, in min, skip the unit.

Value of half-life reported for the compound CNC(=O)c1ccc(-c2cnn3ccc(C(=O)N(C)c4ccc(Cl)c(C(=O)OC)c4)cc23)cc1 [EDI048] is 25.8

* * *

Test: Stability in intestinal S9 fraction
Type: in vitro ADME
Settings: mouse
measurement_name: half-life

compound: CN(C(=O)c1ccn2ncc(-c3ccc(C(N)=O)cc3)c2c1)c1ccc(C#N)cn1 [KDU731, reference compound]
half-life: > 4 h
--
compound: CNC(=O)c1ccc(-c2cnn3ccc(C(=O)N(C)c4ccc(Cl)c(C(=O)O)c4)cc23)cc1 [Compound 6]
half-life: > 4 h

Turning now to a further compound:
Value of half-life reported for the compound CNC(=O)c1ccc(-c2cnn3ccc(C(=O)N(CC(=O)O)c4ccc(Cl)cc4)cc23)cc1 [Compound 2] is > 4 h
